assayed_target: PKC epsilon (Homo sapiens, UniProt Q02156)
Construct: purchased Invitrogen P2282
Sequence (Q02156 1-737): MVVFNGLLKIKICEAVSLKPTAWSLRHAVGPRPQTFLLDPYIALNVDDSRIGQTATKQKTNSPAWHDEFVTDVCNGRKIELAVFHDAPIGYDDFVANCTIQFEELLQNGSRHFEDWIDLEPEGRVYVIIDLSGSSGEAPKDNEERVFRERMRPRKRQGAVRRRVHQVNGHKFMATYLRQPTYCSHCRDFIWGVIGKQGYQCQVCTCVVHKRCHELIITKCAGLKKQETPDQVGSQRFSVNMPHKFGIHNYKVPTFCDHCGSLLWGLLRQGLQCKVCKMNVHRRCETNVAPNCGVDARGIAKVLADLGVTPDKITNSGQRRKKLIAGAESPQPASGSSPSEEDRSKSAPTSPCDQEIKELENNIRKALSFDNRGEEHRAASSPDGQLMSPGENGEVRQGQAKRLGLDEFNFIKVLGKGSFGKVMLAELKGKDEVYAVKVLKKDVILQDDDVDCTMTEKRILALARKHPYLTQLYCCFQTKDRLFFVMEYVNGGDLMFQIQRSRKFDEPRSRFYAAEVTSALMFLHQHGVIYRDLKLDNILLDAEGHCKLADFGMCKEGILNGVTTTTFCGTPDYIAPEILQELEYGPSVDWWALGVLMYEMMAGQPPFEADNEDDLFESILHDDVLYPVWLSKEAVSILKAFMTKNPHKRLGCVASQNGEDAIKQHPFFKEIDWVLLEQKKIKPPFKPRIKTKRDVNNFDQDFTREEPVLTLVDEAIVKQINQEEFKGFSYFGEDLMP
experimental_protocol: Biochemical assay for PKC epsilon (fluorescence polarization, Protein Kinase C Assay Kit, Red)
study_conditions: Table 2, compounds of Formula XIII; read-out: IC50 μM PKCε
assay_endpoint: IC50

The examples below pair each entry with its known result.
NC(CNC(=O)C1CCSc2ccccc21)c1ccc(C(=O)Nc2ccncc2)cc1 (stereo not drawn) :: 0.05 to 0.5 µM
COc1ccc2c(c1)CCCC2C(=O)NCC(N)c1ccc(C(=O)Nc2ccncc2)cc1 (stereo not drawn) :: 0.05 to 0.5 µM
CC(=O)Nc1ccc(C(=O)NCC(N)c2ccc(C(=O)Nc3ccncc3)cc2)cc1 (stereo not drawn) :: 5 to 50 µM
NC(CNC(=O)C1(c2ccc(F)c(F)c2)CC1)c1ccc(C(=O)Nc2ccncc2)cc1 (stereo not drawn) :: < 0.05 µM
NC(CNC(=O)Cc1ccc2ccccc2c1)c1ccc(C(=O)Nc2ccncc2)cc1 (stereo not drawn) :: 5 to 50 µM

Ask: # query: IC50 of entry NC(CNC(=O)Cc1c[nH]c2ccccc12)c1ccc(C(=O)Nc2ccncc2)cc1 (stereo not drawn)
Reply: 0.5 to 5 µM

Ask: # query: IC50 of entry NC(CNC(=O)Cc1cccc(Cl)c1)c1ccc(C(=O)Nc2ccncc2)cc1 (stereo not drawn)
Reply: 0.5 to 5 µM

Ask: # query: IC50 of entry NC(CNC(=O)c1ccc2ccccc2c1)c1ccc(C(=O)Nc2ccncc2)cc1 (stereo not drawn)
Reply: 5 to 50 µM

Ask: # query: IC50 of entry CCCCC(=O)NCC(N)c1ccc(C(=O)Nc2ccncc2)cc1 (stereo not drawn)
Reply: 0.5 to 5 µM

Ask: # query: IC50 of entry COCC(=O)NCC(N)c1ccc(C(=O)Nc2ccncc2)cc1 (stereo not drawn)
Reply: 5 to 50 µM

Ask: # query: IC50 of entry NC(CNC(=O)C1(c2ccc(F)cc2)CC1)c1ccc(C(=O)Nc2ccncc2)cc1 (stereo not drawn)
Reply: < 0.05 µM

Ask: # query: IC50 of entry COc1cc(OC)cc(C(=O)NCC(N)c2ccc(C(=O)Nc3ccncc3)cc2)c1 (stereo not drawn)
Reply: 0.5 to 5 µM

Ask: # query: IC50 of entry NC(CNC(=O)CNC(=O)c1ccccc1)c1ccc(C(=O)Nc2ccncc2)cc1 (stereo not drawn)
Reply: 5 to 50 µM

Ask: # query: IC50 of entry NC(CNC(=O)C1CCOc2ccc(F)cc21)c1ccc(C(=O)Nc2ccncc2)cc1 (stereo not drawn)
Reply: 0.05 to 0.5 µM

Ask: # query: IC50 of entry NC(CNC(=O)C1CCCc2ccccc21)c1ccc(C(=O)Nc2ccncc2)cc1 (stereo not drawn)
Reply: 0.05 to 0.5 µM

Ask: # query: IC50 of entry NC(CNC(=O)C1CCc2cc(Cl)ccc21)c1ccc(C(=O)Nc2ccncc2)cc1 (stereo not drawn)
Reply: < 0.05 µM

Ask: # query: IC50 of entry NC(CNC(=O)C1(c2ccc(F)c(F)c2)CCC1)c1ccc(C(=O)Nc2ccncc2)cc1 (stereo not drawn)
Reply: < 0.05 µM

Ask: # query: IC50 of entry Cc1nc(-c2ccccc2)sc1C(=O)NCC(N)c1ccc(C(=O)Nc2ccncc2)cc1 (stereo not drawn)
Reply: 5 to 50 µM

Ask: # query: IC50 of entry CC(C)(C(=O)NCC(N)c1ccc(C(=O)Nc2ccncc2)cc1)c1cccs1 (stereo not drawn)
Reply: < 0.05 µM

----------
assayed_target: human ROCKα/ROCKII mix (Homo sapiens, UniProt O75116)
Construct: purchased Upstate Biotechnology 14-451
Sequence (O75116 11-552 limits assumed): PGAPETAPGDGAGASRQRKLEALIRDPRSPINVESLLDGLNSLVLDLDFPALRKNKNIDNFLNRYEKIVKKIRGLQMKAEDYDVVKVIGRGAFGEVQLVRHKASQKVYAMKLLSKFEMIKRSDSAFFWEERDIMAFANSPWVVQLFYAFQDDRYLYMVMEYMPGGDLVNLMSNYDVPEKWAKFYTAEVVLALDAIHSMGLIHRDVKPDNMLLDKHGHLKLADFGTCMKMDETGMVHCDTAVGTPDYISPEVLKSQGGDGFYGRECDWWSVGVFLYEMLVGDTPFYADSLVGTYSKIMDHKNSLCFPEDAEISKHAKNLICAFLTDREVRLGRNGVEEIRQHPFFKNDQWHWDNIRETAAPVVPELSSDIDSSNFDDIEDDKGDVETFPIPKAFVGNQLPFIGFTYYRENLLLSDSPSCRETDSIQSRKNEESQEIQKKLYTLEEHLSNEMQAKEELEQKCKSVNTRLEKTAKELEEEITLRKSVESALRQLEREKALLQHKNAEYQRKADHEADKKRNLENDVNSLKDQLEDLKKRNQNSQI
experimental_protocol: Biochemical assay for ROCK (fluorescence polarization, ROCK IMAP Kit)
study_conditions: Table 2, compounds of Formula XIII
assay_endpoint: IC50

Ask: # query: IC50 of entry CC(C)(C)ON=Cc1cccc(C(=O)NCC(N)c2ccc(C(=O)Nc3ccncc3)cc2)c1 (racemic)
Reply: 0.5 to 5 µM

Ask: # query: IC50 of entry NC(CNC(=O)C(c1ccccc1)C1CCCC1)c1ccc(C(=O)Nc2ccncc2)cc1 (stereo not shown)
Reply: 0.5 to 5 µM

Ask: # query: IC50 of entry NC(CNC(=O)c1cccc(S(=O)(=O)Nc2ccccc2)c1)c1ccc(C(=O)Nc2ccncc2)cc1 (stereo not shown)
Reply: 0.5 to 5 µM

Ask: # query: IC50 of entry Cc1ccsc1C=NOCC(=O)NCC(N)c1ccc(C(=O)Nc2ccncc2)cc1 (stereo not shown)
Reply: 0.5 to 5 µM

Ask: # query: IC50 of entry NC(CNC(=O)c1c[nH]cn1)c1ccc(C(=O)Nc2ccncc2)cc1 (stereo not shown)
Reply: 0.5 to 5 µM

Ask: # query: IC50 of entry NC(CNC(=O)C1(c2ccc(F)c(F)c2)CCCC1)c1ccc(C(=O)Nc2ccncc2)cc1 (stereo not shown)
Reply: 0.05 to 0.5 µM

Ask: # query: IC50 of entry NC(CNC(=O)C1CCOC1)c1ccc(C(=O)Nc2ccncc2)cc1 (stereo not shown)
Reply: 0.5 to 5 µM

Ask: # query: IC50 of entry COc1cc(OC)cc(C(=O)NCC(N)c2ccc(C(=O)Nc3ccncc3)cc2)c1 (stereo not shown)
Reply: 0.5 to 5 µM

Ask: # query: IC50 of entry NC(CNC(=O)c1cnnc2ccccc12)c1ccc(C(=O)Nc2ccncc2)cc1 (stereo not shown)
Reply: 0.5 to 5 µM

Ask: # query: IC50 of entry NC(CNC(=O)C1CC1)c1ccc(C(=O)Nc2ccncc2)cc1 (stereo not shown)
Reply: 0.5 to 5 µM

Ask: # query: IC50 of entry NC(CNC(=O)C1(c2ccc(F)c(F)c2)CCC1)c1ccc(C(=O)Nc2ccncc2)cc1 (stereo not shown)
Reply: 0.05 to 0.5 µM

Ask: # query: IC50 of entry NC(CNC(=O)C1CCCC1)c1ccc(C(=O)Nc2ccncc2)cc1 (stereo not shown)
Reply: 0.5 to 5 µM

Ask: # query: IC50 of entry NC(CNC(=O)c1cccs1)c1ccc(C(=O)Nc2ccncc2)cc1 (stereo not shown)
Reply: 0.05 to 0.5 µM

----------
assayed_target: PKC epsilon (Homo sapiens, UniProt Q02156)
Construct: purchased Invitrogen P2282
experimental_protocol: Biochemical assay for PKC epsilon (fluorescence polarization, Protein Kinase C Assay Kit, Red)
study_conditions: read-out: IC50 μM PKCε
Known IC50 of a selection of molecules

The examples below pair each entry with its known result.
NC(c1ccc(C(=O)Nc2ccncc2)cc1)C1CCCN1C(=O)Cc1ccc(F)cc1Cl (stereo not shown) :: 0.5 to 5 µM
COc1ccc(CC(=O)N2CCCC2C(N)c2ccc(C(=O)Nc3ccncc3)cc2)c(OC)c1 (stereo not shown) :: 0.5 to 5 µM
NC(c1ccc(C(=O)Nc2ccncc2)cc1)C1CCCN1C(=O)C1(c2ccc(F)c(F)c2)CCC1 (stereo not shown) :: 0.5 to 5 µM
NC(CNC(=O)NC1CCCCC1)c1ccc(C(=O)Nc2ccncc2)cc1 (stereo not shown) :: 5 to 50 µM
N[C@H](CC(=O)N[C@@H]1CCCc2ccccc21)c1ccc(C(=O)Nc2ccncc2)cc1 :: < 0.05 µM
NC(c1ccc(C(=O)Nc2ccncc2)cc1)C1CCCN1C(=O)C1(c2ccc(F)cc2)CC1 (stereo not shown) :: 0.5 to 5 µM

Now turn to the next molecule.
Ask: # query: IC50 of entry CCOC(=O)CCNC(=O)NCC(N)c1ccc(C(=O)Nc2ccncc2)cc1 (stereo not shown)
Reply: 5 to 50 µM
